meta.source: the supplement of paper PMC12632987

# median log2 fold change per entry
Molecular target: GABARAP, O95166
Sequence (O95166 whole entry, the tested form may be a part): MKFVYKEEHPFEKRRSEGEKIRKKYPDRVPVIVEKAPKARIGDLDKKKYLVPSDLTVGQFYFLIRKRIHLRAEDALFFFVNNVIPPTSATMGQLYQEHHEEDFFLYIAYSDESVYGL
Experiment: median log2 fold change of GCK-ALFA target abundance (FLAG IP / Myc IP barcode read proportion) (log2 ratio); each designed protein is fused to an ALFA-tag nanobody in HEK293 cells to bring the named protein to FLAG-tagged glucokinase (GCK); Myc marks an untargeted standard; higher = target protein stabilised (more abundant)
Conditions: target protein: 3xFLAG-MCP-GCK-ALFA reporter; HEK293 landing pad (RPLP)
The full ranking holds about 4,500 sequences; the median of “median log2 fold change of GCK-ALFA target abundance (FLAG IP / Myc IP barcode read proportion)” is about 0.078, and the lowest 2% start at about -0.6. The entries come from a sample that favours the lowest values as a whole.
Please reply with the number alone, leaving off any unit.

Below: 4 binders and their reported median log2 fold change.
| binder | readout-label | endpoint-result |
| --- | --- | --- |
| GBRAP_11_2656 (protein) KKEAYKKAAELAEEAAKALQKLIEEGVDDEELIEKLRKLIEELKKLAEEELDEADKKEVEVVVELFEEFLADEENRLQLAEELLAGLRVLAGNFQLKADE | median log2 fold change | 0.336 |
| GBRAP_52_5855 (protein) SKEKMRKLAEELLKLKLAGKEEELEKKVKELVATLSEEEILELLKELAELAKKANKEEAEAIAEVAELLADEAEKAGFDEDELSYELAKVYAAAYKVLQK | median log2 fold change | -0.0898 |
| GBRAP_160_4516 (protein) SPKLERIEKLVEEARERIIEVIDEGDVEAAITVAAVEFGEVIMEIAEDESMSDEAEDAAAEIRDKLVEELKKAKDASKEEKKKIVEEKSKELIEKLKKLS | median log2 fold change | 0.404 |
| GBRAP_128_3437 (protein) AQEELLQEALELLDEIVESDVETAAELAKQLAELLGQLDEESRDEVVEYFEEKAKELTEEKLEAVADALREQVPQLDADTANAVNEMIVILGEQILELEE | median log2 fold change | -0.0498 |

Exercise: Which median log2 fold change is reported for this binder? GBRAP_160_4810 (protein) KEKAEKLMEEARKDLLETAEASADLPIEDRARLLEAEGYTSILDFEEELNISDETEEELDEVVDDLVARLLANPDLSREEVLALVEEAVERMKEIVEKEV
Key: -0.669

Exercise: Returns the measured median log2 fold change for the input binder. Input: GBRAP_35_5569 (protein) STDETIVEMTVNTIEALTLAVPDLDPATLETITRQVVALAREVIEDIKNNLEGLKRILEALRALLAAIRARGLDDPHLQAAAAAVEEAIRLAEKAIKEAE
Key: -0.994
